System: 292921-168-R tumor spheroid viability;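 further: spheroids exposed to compounds for 7 days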
Experiment: Anticancer human tumor 292921-168-R patient-derived pancreatic carcinoma cell line growth inhibition
Settings: curve of first compound; second compound 94.9 pM; spheroids with HUVEC and MSC
QUANTITY: IC50 (nM)
Express it in nM; write the number only.

Would you please look over these solved cases?
>>> meas_value("Cn1ncnc1[C@H]1c2n[nH]c(=O)c3cc(F)cc(c23)N[C@@H]1c1ccc(F)cc1 + COc1cc2c(cc1O)CCNC21CSC2c3c(OC(C)=O)c(C)c4c(c3C(COC1=O)N1C(O)C3Cc5cc(C)c(OC)c(O)c5C(C21)N3C)OCO4")
233
>>> meas_value("CNCc1ccc(-c2cc(-c3nc(-c4ccc(S(=O)(=O)C(C)C)cc4)cnc3N)on2)cc1 + COc1cc2c(cc1O)CCNC21CSC2c3c(OC(C)=O)c(C)c4c(c3C(COC1=O)N1C(O)C3Cc5cc(C)c(OC)c(O)c5C(C21)N3C)OCO4")
147
>>> meas_value("COc1ccc([C@@H](O)c2cc(-c3ncnc4cc(N5CCOCC5)ccc34)c(F)cc2Cl)nn1 + COc1cc2c(cc1O)CCNC21CSC2c3c(OC(C)=O)c(C)c4c(c3C(COC1=O)N1C(O)C3Cc5cc(C)c(OC)c(O)c5C(C21)N3C)OCO4")
871
>>> meas_value("Cc1sc2c(c1C)C(c1ccc(Cl)cc1)=NC(CC(=O)Nc1ccc(O)cc1)c1nnc(C)n1-2 (stereo not given) + COc1cc2c(cc1O)CCNC21CSC2c3c(OC(C)=O)c(C)c4c(c3C(COC1=O)N1C(O)C3Cc5cc(C)c(OC)c(O)c5C(C21)N3C)OCO4")
1720

# IC50 (compound: O=C(c1cc(Cc2n[nH]c(=O)c3ccccc23)ccc1F)N1CCN(C(=O)C2CC2)CC1 + COc1cc2c(cc1O)CCNC21CSC2c3c(OC(C)=O)c(C)c4c(c3C(COC1=O)N1C(O)C3Cc5cc(C)c(OC)c(O)c5C(C21)N3C)OCO4 ) is 7070
